# Test system: K4 kissing-loop RNA reporter;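 further: bound reporter read as fluorescence of individual clusters on recovered sequencing chips by microscopy, with normalized cluster intensities fitted with a binding model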
# Measurement notes: apparent KD of K4 kissing-loop reporter; higher = weaker reporter binding
# Recorded conditions: Eterna round: R107; input ligand: arginine 13.2 mM
Observation type: apparent KD of K4 kissing-loop reporter (nM)
Field format: number, assumed nM, no unit text.

Before answering, review these 2 worked examples.
[[record]]
sequence = "AAGGCCACGAGAAGGAGCGUGUUGUGGAGUGAUGUUCCAUUGUAGACCUAAGGUCUGCGAGCACAGGUAGGUCGCUCGUGGUCAA [whbob_SS_Arginine_B_2t150]"
experimental_system = "K4 kissing-loop RNA reporter"
value = 116

[[record]]
sequence = "AUUAAUUUCAGAGGAUAUCGUGAUUUUGUUUAAUUUAUUCAUUUGUGCAGUGAUGUUGCUAAUAUUCGAGAAGGCUGAUUUAUAA [whbob_Ex_FMNB__2th225]"
experimental_system = "K4 kissing-loop RNA reporter"
value = 134


From here, focus on the item given below.
stdin: Which apparent KD of K4 kissing-loop reporter is listed for `GCCGUACGCAUGGAUACCAGCUAUUAGAGUGAUGUUCUAUGGCCCUGCCAGAGUAGCUGUAGCCCUUGGCAGCCAUGCGUACGGC` ?
stdout: 119
